Source of measurements: ChEMBL document CHEMBL1157539

test system: Plasmodium falciparum; experiment: GSK_TCMDC: Inhibition of Plasmodium falciparum Dd2 in whole red blood cells, using parasite LDH activity as an index of growth. Test compounds present at 2uM; assay type: functional
Reported Inhibition is given for each of the following compounds.
measure: Inhibition (%)

compound: CC(C)(NCc1ncc[nH]1)c1nc(-c2ccc(Cl)c(O)c2)c(-c2ccncc2)[nH]1.Cl
measure: Inhibition
quantitative-result: 97

compound: Br.Oc1ccc(CCNCCCCCCNCCc2ccc(Br)cc2)cc1O
measure: Inhibition
quantitative-result: 5

compound: Fc1ccc2[nH]c(-c3cccc(-c4cccc(CN5CCN(c6cnccn6)CC5)c4)c3)nc2c1.O=C(O)C(F)(F)F
measure: Inhibition
quantitative-result: 35

compound: Cl.Nc1cc(C(F)(F)F)ccc1Cl
measure: Inhibition
quantitative-result: 0

compound: COc1ccc(CNc2nccc3ccc(-c4ccc5nccn5c4)cc23)cc1.O=C(O)C(F)(F)F
measure: Inhibition
quantitative-result: 47

compound: c1ccc(Oc2ccc(Nc3ccnc4cc(-c5cccc(CN6CCOCC6)c5)ccc34)cc2)cc1
measure: Inhibition
quantitative-result: 100

compound: Cc1nc2ccc(S(=O)(=O)Nc3ccc(C(=O)N[C@@H](CCC(=O)O)C(=O)O)cc3)cc2c(=O)[nH]1
measure: Inhibition
quantitative-result: 2

compound: CN1CCC(NCc2ccc(-c3ccc(S(=O)(=O)NCc4ccccc4)c(F)c3)cc2)CC1.O=C(O)C(F)(F)F
measure: Inhibition
quantitative-result: 89

compound: CCN1CCC(N(Cc2ccc(-c3ccc(C(F)(F)F)cc3)cc2)C(=O)Cn2c(SCc3ccc(F)cc3)nc(=O)c3c2CCC3)CC1.O=C(O)C(O)C(O)C(=O)O
measure: Inhibition
quantitative-result: 96

compound: CCCCNCc1ccc(-c2nc(CN(C(=O)Nc3cc([N+](=O)[O-])ccc3F)C3Cc4ccccc4C3)cs2)cc1.O=C(O)C(F)(F)F
measure: Inhibition
quantitative-result: 13

compound: Cl.N#CCc1ccc(Nc2nccc(Nc3ccc(Oc4ccccc4)cc3)n2)cc1
measure: Inhibition
quantitative-result: 47

compound: O=C(CN1CCN(C(=O)c2ccco2)CC1)Nc1ccccc1Br
measure: Inhibition
quantitative-result: 96

compound: COc1cccc(-c2ccc(O)c(CNCCc3cccc(F)c3)c2)n1
measure: Inhibition
quantitative-result: 67

compound: Nc1nccc2ccc(-c3ccc4ncccc4c3)cc12.O=C(O)C(F)(F)F
measure: Inhibition
quantitative-result: 100

compound: COc1cccc(COCC(O)CN(CCc2ccccn2)C(=O)c2ccccc2F)c1 (stereo unspecified)
measure: Inhibition
quantitative-result: 30

compound: Cc1[nH]c(C)c(C(F)(F)F)c(=O)c1-c1ccc(Oc2ccc(OC(F)(F)F)cc2)cc1
measure: Inhibition
quantitative-result: 96

compound: NS(=O)(=O)c1cccc(Nc2nccc(-c3c(-c4cccc(NC(=O)c5c(F)cccc5F)c4)nn4ccccc34)n2)c1
measure: Inhibition
quantitative-result: 97

compound: CCCCCCN1CCC(NCc2cccc(C#N)c2)CC1.O=C(O)C(F)(F)F
measure: Inhibition
quantitative-result: 9

compound: Cc1ccc(C(C#N)c2ccc3c(C(F)(F)F)cc(C(F)(F)F)nc3n2)cc1 (stereo unspecified)
measure: Inhibition
quantitative-result: 36

compound: CCN(CC)CC(O)CNc1c2ccc([N+](=O)[O-])cc2nc2cc(OC)c(OC)cc12.Cl (stereo unspecified)
measure: Inhibition
quantitative-result: 100

compound: COc1ccc2nccc([C@@H](O)CN3CCC(NCc4cc5c(F)ccc(F)c5[nH]4)CC3)c2n1.CS(=O)(=O)O
measure: Inhibition
quantitative-result: 76

compound: CCC(C)C(COC(=O)c1cc(OC)c(OC)c(OC)c1)N(C)CCN(C)C(COC(=O)c1cc(OC)c(OC)c(OC)c1)C(C)CC.Cl (stereo unspecified)
measure: Inhibition
quantitative-result: 45

compound: Cl.O=c1cc(NCCCNC2CCOc3c(I)cc(Cl)cc32)[nH]c2ccccc12 (stereo unspecified)
measure: Inhibition
quantitative-result: 48

compound: Br.CN(CCON1C(=N)N=C(N)NC1(C)C)c1ccccc1
measure: Inhibition
quantitative-result: 93

compound: Cc1cccc2nc(-c3cccc(-c4cccc(CN5CCC(CO)CC5)c4)c3)[nH]c12.O=C(O)C(F)(F)F
measure: Inhibition
quantitative-result: 90

compound: CCCCN(Cc1cnccc1-c1ccc(Br)cc1)c1ccc(C(O)(C(F)(F)F)C(F)(F)F)cc1.O=C(O)C(F)(F)F
measure: Inhibition
quantitative-result: 45

compound: CC(C)NCc1cccc(-c2cccc(-c3nc4ccccc4[nH]3)c2)c1.O=C(O)C(F)(F)F
measure: Inhibition
quantitative-result: 22

compound: CC(C)CCN1C(=O)C(NC(=O)Oc2ccccc2)C(=O)N(CC23CC4CC(CC(C4)C2)C3)c2ccccc21 (stereo unspecified)
measure: Inhibition
quantitative-result: 4

compound: CC(C)CCNCc1ccc(OCc2ccccc2COc2ccc(CNCCC(C)C)cc2I)c(I)c1.Cl
measure: Inhibition
quantitative-result: 78

compound: CCCc1cc(NC2CCN(C)CC2)nc(Nc2cccc(OC)c2)n1
measure: Inhibition
quantitative-result: 28

compound: COc1ccc(C(=O)CCC(=O)N(CCSC(C)(C)C)Cc2ccc(-c3ccc(CNCCc4ccc(S(C)(=O)=O)cc4)cn3)cc2)cc1F.O=C(O)C(F)(F)F
measure: Inhibition
quantitative-result: 42

compound: CN(C)c1ccc2c(c1)Sc1cc(N(C)C)ccc1N2C(=O)c1cccc(C(=O)O)c1
measure: Inhibition
quantitative-result: 73

compound: CCN(CC)CCN(Cc1ccc(-c2ccc(C(F)(F)F)cc2)cc1)C(=O)Cn1c(SCc2ccc(F)cc2)nc(=O)c2sccc21.O=C(O)C(O)C(O)C(=O)O
measure: Inhibition
quantitative-result: 65

compound: CCc1cccc(-c2cc(N)n(C)c3nc(N)nc(=O)c2-3)c1
measure: Inhibition
quantitative-result: 28

compound: CC(C)N1CCN(C(CN2CCN(CCCOc3ccc(-c4ccccc4)cc3)CC2)c2ccc(F)cc2)CC1.Cl (stereo unspecified)
measure: Inhibition
quantitative-result: 100

compound: CCOC(=O)c1nc(-c2cccnc2)[nH]c1NC(=S)NCc1ccccc1
measure: Inhibition
quantitative-result: 100
